test: Quantitative High-Throughput drug screen in 47 multiple myeloma cell lines against the NCATS MIPE library collection: KMS34_JCRB cell viability assay (AID 1918985); conditions: KMS34 myeloma viability, CellTiter-Glo ATP luminescence, 48 h; series mostly up to 45.8 µM; also: potency is read from the fitted curve at half-maximal effect; nearly all actives have a fitted effect of over 40% in size
Inconclusive results are not listed. The source made the active and inactive calls. Calls follow the shape of the dose curve; as a rule, active = well fitted cell-killing curve with a large enough effect; inconclusive = small, poorly fitted or top-dose-only effect, or effect the other way; inactive = no such curve, though single readings can be large or run the other way.
measured-quantity: Potency

[[record]]
mol_smiles = "Cc1ccc([N+](=O)[O-])cc1S(=O)(=O)N(C)N=Cc1cnc2ccc(Br)cn12"
measured_quantity = "Potency"
result = "14.8 nM (active)"

[[record]]
mol_smiles = "COc1ccc(C[C@@H](C)[C@@H](C)Cc2ccc(OC)c(OC)c2)cc1OC"
measured_quantity = "Potency"
result = "132 nM (active)"

[[record]]
mol_smiles = "CCN(CC)CCNC(=O)c1c(C)[nH]c(C=C2C(=O)Nc3ccc(F)cc32)c1C"
measured_quantity = "Potency"
result = "6050 nM (active)"

[[record]]
mol_smiles = "FC(F)c1nc2ccccc2n1-c1nc(N2CCOCC2)nc(N2CCOCC2)n1"
measured_quantity = "Potency"
result = "1320 nM (active)"

[[record]]
mol_smiles = "Cc1cnc(NC(=O)Nc2cc(Br)c(C)cc2OC[C@@H]2CNCCO2)cn1"
measured_quantity = "Potency"
result = "3320 nM (active)"

[[record]]
mol_smiles = "C=CC(=O)Nc1ccc2ncnc(Nc3ccc(OCc4cccc(F)c4)c(Cl)c3)c2c1"
measured_quantity = "Potency"
result = "332 nM (active)"


====

assay: Quantitative High-Throughput drug screen in 47 multiple myeloma cell lines against the NCATS MIPE library collection: LP1_DSMZ cell viability assay (AID 1918982); conditions: LP1 myeloma viability, CellTiter-Glo ATP luminescence, 48 h; series mostly up to 45.8 µM; also: nearly all actives have a fitted effect of over 35% in size
Results filed as inconclusive are left out. Activity calls are given as the source filed them. Calls follow the shape of the dose curve; as a rule, active = well fitted cell-killing curve with a large enough effect; inconclusive = small, poorly fitted or top-dose-only effect, or effect the other way; inactive = no such curve, though single readings can be large or run the other way.
measured-quantity: outcome

[[record]]
molecule = "Nc1ccn(C2CO[C@H](CO)O2)c(=O)n1 (stereo partly drawn)"
result = "inactive"

[[record]]
molecule = "CC1(C)CC(O)CC(C)(C)N1[O]"
result = "inactive"

[[record]]
molecule = "CCN1CCN(C(=O)N[C@H](C(=O)N[C@@H]2C(=O)N3C(C(=O)O)=C(CSc4nnnn4C)CS[C@@H]23)c2ccc(O)cc2)C(=O)C1=O"
result = "inactive"


====

experiment: Quantitative High-Throughput drug screen in 47 multiple myeloma cell lines against the NCATS MIPE library collection: KMS12BM_JCRB cell viability assay (AID 1918971); settings: KMS12BM myeloma viability, CellTiter-Glo ATP, 48 h; series mostly up to 45.8 µM; also: potency is read from the fitted curve at half-maximal effect; nearly all actives have a fitted effect of over 35% in size
Inconclusive results are not listed. Active and inactive are the calls of the source. Calls follow the shape of the dose curve; as a rule, active = well fitted cell-killing curve with a large enough effect; inconclusive = small, poorly fitted or top-dose-only effect, or effect the other way; inactive = no such curve, though single readings can be large or run the other way.
Entries annotated with measured Potency
measured-quantity: Potency

[[record]]
mol_smiles = "c1cncc(CN2CCC(n3ncc4c(N5CCOCC5)nc(-c5ccc6[nH]ccc6c5)nc43)CC2)c1"
measured_quantity = "Potency"
result = "13.2 µM (active)"

[[record]]
mol_smiles = "CCOc1cc2c(c(F)c1OCC)C(=N)N(CC(=O)c1cc(N3CCOCC3)c(OC)c(C(C)(C)C)c1)C2"
measured_quantity = "Potency"
result = "18.7 µM (active)"

[[record]]
mol_smiles = "C[C@H](NCc1ccc(OCc2cccc(F)c2)cc1)C(N)=O"
measured_quantity = "Potency"
result = "8.33 µM (active)"


====

assay: qHTS drug screen for cell cycle checkpoint inhibitors in PARPi-resistant BRCA-mutant ovarian cancer cell lines. (AID 1963452); settings: PEO1/OlaR viability, CellTiter-Glo luminescence, 96 h; stronger effect = lower value
Residues, ends and D or L forms follow the SMILES beside them. *: point of attachment. Cbz = O=C(OCc1ccccc1)*
measured-quantity: Z-AUC

[[record]]
molecule = "C#Cc1cccc(Nc2ncnc3cc(OCCOC)c(OCCO)cc23)c1"
numeric_value = 0.364

[[record]]
molecule = "O=C(O)CCCCCC(=O)NN=C1CCCC1"
numeric_value = 1.41

[[record]]
molecule = "CC(C)C[C@@H](C=O)NC(=O)[C@H](CC(C)C)NC(=O)[C@H](CC(C)C)NC(=O)OCc1ccccc1 (Cbz-Leu-Leu-Leu-aldehyde)"
numeric_value = -0.0586

[[record]]
molecule = "Cc1ccccc1C(=O)Nc1ccc(C(=O)N2CCCC(O)c3cc(Cl)ccc32)c(C)c1 (configuration not stated)"
numeric_value = -0.543

[[record]]
molecule = "OCCNC1CCCc2c1[nH]c1ccc(-c3ccccc3)cc21 (configuration not stated)"
numeric_value = -0.486

[[record]]
molecule = "C[C@H]1[C@@H](OC(=O)CCC(=O)O)O[C@@H]2O[C@@]3(C)CC[C@@H]4[C@H](C)CC[C@@H]1[C@@]24OO3"
numeric_value = -0.162

[[record]]
molecule = "Cn1cc(C[C@@H](N)C(=O)O)c2ccccc21"
numeric_value = 0.11


====

assay: qHTS of pediatric cancer cell lines to identify multiple opportunities for drug repurposing: Primary screen for MG 63 (6-TG R) cells (AID 1347105); conditions: MG 63 (6-TG R) viability, CellTiter-Glo, 48 h; series mostly up to 46 µM; also: nearly all actives have a fitted effect of over 50% in size
Results filed as inconclusive are left out. Calls of active or inactive are those of the source. Calls come from the whole dose curve; as a rule, active = well fitted cell-killing curve with a large enough effect; inconclusive = small, poorly fitted or top-dose-only effect; inactive = no such curve, though single readings can be large or run the other way.
Outcome codes: active, inactive

[[record]]
mol_smiles = "Cc1ccc([N+](=O)[O-])cc1S(=O)(=O)N(C)N=Cc1cnc2ccc(Br)cn12"
answer_label = "active"

[[record]]
mol_smiles = "C[C@H](CCC(=O)O)[C@H]1CC[C@H]2[C@@H]3[C@H](O)C[C@@H]4C[C@H](O)CC[C@]4(C)[C@@H]3CC[C@]12C"
answer_label = "inactive"

[[record]]
mol_smiles = "CCCCCCCCCCCCc1ccc(S(=O)(=O)Nc2nncs2)cc1"
answer_label = "inactive"


====

assay: Quantitative High-Throughput drug screen in 47 multiple myeloma cell lines against the NCATS MIPE library collection: NCIH929_DSMZ cell viability assay (AID 1918978); conditions: NCI-H929 myeloma viability, CellTiter-Glo ATP, 48 h; series mostly up to 45.8 µM; also: nearly all actives have a fitted effect of over 35% in size
Results filed as inconclusive are left out. Calls of active or inactive are those of the source. Calls come from the whole dose curve; as a rule, active = well fitted cell-killing curve with a large enough effect; inconclusive = small, poorly fitted or top-dose-only effect; inactive = no such curve, though single readings can be large or run the other way.
Outcome codes: true (active), false (inactive)

[[record]]
compound = "CC(O)(C#Cc1ccc2c(c1)N(c1nc(N)ncc1Cl)CC2)c1nccs1 (stereo not drawn)"
answer_label = "true"

[[record]]
compound = "COc1ccc(Nc2nccc(NCCO)n2)cc1"
answer_label = "false"

[[record]]
compound = "C[C@@]12C(=O)OC(=O)[C@@]1(C)C1CCC2O1"
answer_label = "true"


====

Assay: Quantitative High-Throughput drug screen in 47 multiple myeloma cell lines against the NCATS MIPE library collection: KMS28BM_JCRB cell viability assay (AID 1919874); also: nearly all actives have a fitted effect of over 35% in size
Settings: CellTiter-Glo ATP, 48 h; series mostly up to 45.8 µM
Text: PI: Beverly A. Mock Ph.D. Laboratory of Cancer Biology and Genetics, Center for Cancer Research, National Cancer Institute, National Institute of Health, Bethesda, Maryland […] 5; Detector; 425V; Luminescence; Viewlux PerkinElmer. […] 1. […] Briefly, the corresponding myeloma cell lines were screened in 1,536-well plates with 500 cells, 5-uL per well for inhibition of cell viability (assessed by measuring ATP levels with CellTiterGlo). […]
Records with an inconclusive call do not appear. Activity calls are given as the source filed them. Calls come from the whole dose curve; as a rule, active = well fitted cell-killing curve with a large enough effect; inconclusive = small, poorly fitted or top-dose-only effect, or effect the other way; inactive = no such curve, though single readings can be large or run the other way. Residues, ends and D or L forms follow the SMILES beside them. *: point of attachment. Cbz = O=C(OCc1ccccc1)*
Outcome codes: yes = active, no = inactive

[[record]]
compound = "CC(C)C[C@@H](C=O)NC(=O)[C@H](CC(C)C)NC(=O)[C@H](CC(C)C)NC(=O)OCc1ccccc1 (Cbz-Leu-Leu-Leu-aldehyde)"
answer_label = "yes"

[[record]]
compound = "Oc1cc2c(cc1O)C1c3ccc(O)c(O)c3OCC1(O)C2 (stereo unspecified)"
answer_label = "no"

[[record]]
compound = "CCn1c(=O)c2c(nc(C=Cc3ccc(OC)c(OC)c3)n2C)n(CC)c1=O"
answer_label = "no"

[[record]]
compound = "Nc1cccc2c1C(=O)N(C1CCC(=O)NC1=O)C2=O (stereo unspecified)"
answer_label = "no"

[[record]]
compound = "O=C(CN1C(=O)C2(CCCC2)NC[C@H]1c1cc(F)cc(F)c1)Nc1ccc2c(c1)C[C@@]1(C2)C(=O)Nc2ncccc21"
answer_label = "no"

[[record]]
compound = "CC(=O)O[C@H]1C[C@@H]2CC[C@H]3[C@H]4C[C@H]([N+]5(C)CCCCC5)[C@@H](OC(C)=O)[C@@]4(C)CC[C@@H]3[C@@]2(C)C[C@H]1N1CCCCC1"
answer_label = "no"

[[record]]
compound = "Cc1noc(-c2ccc(CSCCC(=O)O)cc2)c1NC(=O)OC(C)c1ccccc1Cl (stereo unspecified)"
answer_label = "no"

[[record]]
compound = "CCCCCCCCc1ccc(CCC(N)(CO)CO)cc1"
answer_label = "yes"

[[record]]
compound = "CCC(C=C[C@@H]1OC(=O)C=C[C@H]1C)=C[C@H](C)CC=CC(C)=C[C@@H](C)C(=O)[C@@H](C)[C@H](O)[C@@H](C)CC(C)=CC(=O)O"
answer_label = "yes"

[[record]]
compound = "O=C1c2c(O)cccc2[C@@H]([C@@H]2O[C@H](CO)[C@@H](O)[C@H](O)[C@H]2O)c2cc(CO)cc(O)c21"
answer_label = "no"

[[record]]
compound = "C[C@]12CCC(=O)C=C1[C@@H]1CC1[C@H]1[C@H]3[C@@H]4C[C@H]4[C@@]4(CCC(=O)O4)[C@@]3(C)CC[C@H]12 (stereo partly specified)"
answer_label = "yes"

